Reported K by item:
# Species: Rattus norvegicus
# Test Protocol: Open TG-GATES - Regimen: Daily Repeat
# Type: toxicity, organism-based, Sprague-Dawley
# Set-up: regimen Daily Repeat, gender Male, age 6 weeks
# Reported Conditions: in vivo, po, 1000 mg/kg, […], tissue Plasma, route gavage, dose level High, time 28 day
Field format: number, assumed meq/L, no unit text.

What the record says about CCOC(=O)CCC(=O)O[C@H]1[C@H](O[C@@H]2[C@@H](C)[C@H](O[C@H]3C[C@@](C)(OC)[C@@H](O)[C@H](C)O3)[C@@H](C)C(=O)O[C@H](CC)[C@@](C)(O)[C@H](O)[C@@H](C)C(=O)[C@H](C)C[C@@]2(C)O)O[C@H](C)C[C@@H]1N(C)C [ERYTHROMYCIN ETHYLSUCCINATE] : K is 4.1

What the record says about CC(C)OC(=O)C(C)(C)Oc1ccc(C(=O)c2ccc(Cl)cc2)cc1 [FENOFIBRATE] : K is 3.7
